# Experimental Target: canine FcRn (FcRn large subunit with canine beta-2-microglobulin) (canine)
# Assay Overview: SPR pH 6.0, IgG coupled to CM5, FcRn 50-800 nM
Result Type: koff (s⁻¹)
One number for each entry, in s⁻¹.

>>> quantitative_result("anti-NGF canine IgGB antibody, Fc variant A426Y + N434R (antibody, part only; not given: anti-NGF variable domains and light chain, not shown: another chain or arm of the molecule; small tags and cut ends) Fc: APEMLGGPSVFIFPPKPKDTLLIARTPEVTCVVVDLDPEDPEVQISWFVDGKQMQTAKTQPREEQFNGTYRVVSVLPIGHQDWLKGKQFTCKVNNKALPSPIERTISKARGQAHQPSVYVLPPSREELSKNTVSLTCLIKDFFPPDIDVEWQSNGQQEPESKYRTTPPQLDEDGSYFLYSKLSVDKSRWQRGDTFICYVMHEALHRHYTQESLSHSPGK")
0.0591

Data request, read-out koff, for canine IgGA antibody with wild-type IgGA Fc and the variable domain of Gearing et al. 2013 (antibody, part only; not given: variable domains and light chain, not shown: another chain or arm of the molecule; small tags and cut ends) Fc: VPEPLGGPSVLIFPPKPKDILRITRTPEVTCVVLDLGREDPEVQISWFVDGKEVHTAKTQSREQQFNGTYRVVSVLPIEHQDWLTGKEFKCRVNHIDLPSPIERTISKARGRAHKPSVYVLPPSPKELSSSDTVSITCLIKDFYPPDIDVEWQSNGQQEPERKHRMTPPQLDEDGSYFLYSKLSVDKSRWQQGDPFTCAVMHETLQNHYTDLSLSHSPGK
0.187
